Experiment: solvent given as SMILES
Conditions: in ClCCl
fluorescence lifetime values by entry
Write it as a number; the unit ns goes unstated.

Lookup result for "O=S1(=O)c2ccc(-c3c4ccccc4cc4ccccc34)cc2-c2cc(-c3c4ccccc4cc4ccccc34)ccc21" ; measured fluorescence lifetime: 3.7

fluorescence lifetime for "Cc1c(C(=O)c2ccc(C(F)(F)F)cc2)c2ccc3cccc4c5cccc6ccc1c(c65)c2c34" is 1.39

For this molecule ( "CC1(C)C(/C=C/C=C/C=C/C=C2/N(CCCCS(=O)(=O)[O-])c3ccc4ccccc4c3C2(C)C)=[N+](CCCCS(=O)(=O)[O-])c2ccc3ccccc3c21" ), measured fluorescence lifetime is 0.91

As a next step, examine the molecule that follows.
// fluorescence lifetime lookup, molecule = "c1ccc(N(c2ccccc2)c2ccc(N(c3ccccc3)c3ccc4ccc5c(N(c6ccccc6)c6ccc(N(c7ccccc7)c7ccccc7)cc6)ccc6ccc3c4c65)cc2)cc1" , result: 2.7
